Data credit: ChEMBL document CHEMBL4513216

EXPERIMENT_SUMMARY: Toxicity liver stage against HepG2, at 10uM
Assay type: cell-based
Set-up: test concentration 10 uM, cell line HepG2-A16-CD81EGFP
CONDITION_INFO: human, HepG2-A16-CD81EGFP cells; read-out: INHIBITION
Recorded cytotoxicity at 10 µM values for a group of compounds are listed next.

Input line: For the compound `CN(C)CC(=O)N1CCC2(CC1)CN(c1ccsc1)C(=O)CO2` , report cytotoxicity at 10 µM.
Output line: 10.1%

Input line: Tell us which cytotoxicity at 10 µM value is on record for CC1CCCN(C(=O)c2cn(-c3ccc(C(F)(F)F)cn3)nn2)C1 (configuration not stated)
Output line: -51.3%

Input line: Please give the documented cytotoxicity at 10 µM of CC(C(=O)N1CCc2ccccc2C1)N(C)Cc1cscn1 (configuration not stated)
Output line: -1.6%

Below: the item to evaluate.
Input line: Determine its reported cytotoxicity at 10 µM: `COC(=O)c1cc2c(=O)[nH]c(=O)n(CCc3ccccc3)c2nc1C`
Output line: -4.74%

----------
Below: a set of entries, each annotated with reported cytotoxicity at 10 µM.
EXPERIMENT_SUMMARY: Toxicity liver stage against HepG2, at 10uM
Assay type: cell-based
Parameters: test concentration 10 uM, cell line HepG2-A16-CD81EGFP
CONDITION_INFO: human, HepG2-A16-CD81EGFP cells; read-out: INHIBITION
Returns: string containing the numeric result and its unit.

Input line: Consider the molecule `Cc1nc(NC(=O)CCc2c(C)nc3cc(O)nn3c2C)sc1C` and give its recorded cytotoxicity at 10 µM.
Output line: -13.5%

Continue with the next molecule.
Input line: Give cytotoxicity at 10 µM for the following molecule: CC1(C2CCN(CC(N)=O)CC2)CN(Cc2ccccc2)C(=O)O1 (stereo not drawn)
Output line: -23.4%

----------
EXPERIMENT_SUMMARY: Toxicity liver stage against HepG2, at 10uM
Format: cell-based
Parameters: test concentration 10 uM, cell line HepG2-A16-CD81EGFP
CONDITION_INFO: human, HepG2-A16-CD81EGFP cells; read-out: INHIBITION
ASSAY_ENDPOINT: cytotoxicity at 10 µM (%)
# unit: % | format: bare number

Below, each entry is followed by its recorded cytotoxicity at 10 µM result.
Input line: Tell us which cytotoxicity at 10 µM value is on record for O=C(NCC1CCCO1)c1nc2c(s1)CCCN2C(=O)C1CC1 (stereo not drawn)
Output line: -0.464

Input line: Answer with the recorded cytotoxicity at 10 µM for the compound listed here: `COc1cccc(-c2cc(C(=O)NCCCn3cnnc3)[nH]n2)c1`
Output line: 3.45

Input line: Given `O=c1[nH]c2nc(NC3CC3)ncc2c(=O)n1-c1ccc(F)cc1` , respond with its cytotoxicity at 10 µM.
Output line: -4.06

Input line: Give the reported cytotoxicity at 10 µM for this compound. CC(=O)NC1CCCN(C(=O)NCc2cccnc2)C1 (stereo not drawn)
Output line: -10.5

Input line: Supply reported cytotoxicity at 10 µM belonging to this compound: Cc1cnn(CC2CN(Cc3nc(C)c4ccccc4n3)CCO2)c1 (stereo not drawn)
Output line: -35.6

Input line: Query cytotoxicity at 10 µM for `Cc1cccc(C(=O)Nc2cccc3c2CCCC3)n1`
Output line: -2.35

Input line: Identify measured cytotoxicity at 10 µM associated with `COc1ccccc1C1(CNc2snc(Cl)c2C#N)CCOCC1`
Output line: 10.2

Input line: Give recorded cytotoxicity at 10 µM. `N#Cc1ccc(NCC(=O)Nc2ncn(Cc3cccnc3)n2)cc1`
Output line: 7.65

New cases:
Input line: Please report cytotoxicity at 10 µM for the following compound: `CN(C)S(=O)(=O)N1C[C@H](Oc2cccnc2)[C@H]2OCCC[C@H]21`
Output line: 14.8

Input line: Using known records, supply cytotoxicity at 10 µM for `Brc1ccc(CNCc2nnc3n2CCCCC3)s1`
Output line: -0.254
